Listing of recorded IC50 by entry.
Biological target: human LPA1 (Homo sapiens, UniProt Q92633)
Construct: expressed in transfected cells; host or cells: CHO-K1
Sequence (Q92633 whole entry): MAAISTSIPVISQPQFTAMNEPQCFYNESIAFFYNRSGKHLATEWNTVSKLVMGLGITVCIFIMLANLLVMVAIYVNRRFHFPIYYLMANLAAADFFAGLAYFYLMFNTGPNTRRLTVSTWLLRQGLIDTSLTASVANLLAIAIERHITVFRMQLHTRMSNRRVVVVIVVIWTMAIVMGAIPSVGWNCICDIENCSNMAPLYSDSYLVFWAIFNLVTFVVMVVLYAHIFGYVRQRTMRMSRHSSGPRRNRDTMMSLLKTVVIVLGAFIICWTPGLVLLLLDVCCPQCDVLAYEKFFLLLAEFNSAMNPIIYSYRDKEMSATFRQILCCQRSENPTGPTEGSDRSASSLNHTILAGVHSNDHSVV
Assay: In vitro LPA1 functional antagonist assay (calcium mobilization, FLIPR)
Assay type: cell-based
Details: Table B2; CHO-K1 cells overexpressing human LPA1, Oleoyl LPA challenge at EC80; read-out: IC50
Experimental: In Vitro LPA1 Functional Antagonist Assay CHO-K1 cells overexpressing human LPA1 were seeded in a total volume of 20 μL into black-walled, clear-bottom. […] Compound antagonist activity was measured on a FLIPR Tetra (MSD). Calcium mobilization was monitored for 2 minutes and 10 μL Oleoyl LPA in HBSS/20 mM Hepes was added to the cells 5 seconds into the assay. […] LPA agonist activity was measured on a FLIPR Tetra (MSD). […] Compound activity was analyzed using CBIS data analysis suite (ChemInnovation, CA). […]
Give your result in µM as a bare value.

{"Chem Smiles": "Cc1c(OC2CC2)cccc1-c1ccc(NC2(C(=O)O)CCOCC2)cc1COC1CC1", "Assayed System": "human LPA1 (Homo sapiens, UniProt Q92633)", "IC50 / µM": 0.00715}
{"Chem Smiles": "COc1cc(OC)cc(-c2ccc(OCCC(=O)O)cc2COC2Cc3ccccc3C2)c1", "Assayed System": "human LPA1 (Homo sapiens, UniProt Q92633)", "IC50 / µM": 0.162}
{"Chem Smiles": "CCOc1c(C)ccc(-c2ccc(NC3(C(=O)O)CCOCC3)cc2COC2CCCC2)c1C", "Assayed System": "human LPA1 (Homo sapiens, UniProt Q92633)", "IC50 / µM": 0.0186}

Then this molecule:
So what does the record say about IC50 for CCOc1cccc(-c2ccc(NC3(C(=O)O)CCOCC3)cc2COC2CC2)c1Cl ? 0.00794
